# protocol-text: Distribution coefficient at pH 7.4
# Format: physicochemical
# assay-conditions: RP-HPLC, read-out: Log Kw
measurement-type: chromatographic logD

[
  {
    "molecule": "COc1ccccc1COCCCOc1ccc([C@H]2CCNC[C@@H]2OCc2cc(OC)c3ccccc3c2OC)cc1 (racemic)",
    "measurement-type": "chromatographic logD",
    "meas-value": 5.4
  },
  {
    "molecule": "COc1ccccc1COCCCOc1ncc([C@H]2CCNC[C@@H]2OCc2cc(OC)c3ccccc3c2OC)cn1 (racemic)",
    "measurement-type": "chromatographic logD",
    "meas-value": 4.1
  },
  {
    "molecule": "COc1ccccc1COCCCOc1ccc([C@H]2CCNC[C@@H]2OCc2ccc3c(c2)NCCC3)cc1 (racemic)",
    "measurement-type": "chromatographic logD",
    "meas-value": 3.8
  }
]
